Assay: Solubility test (UV-vis calibration curves, maximum solubility)
Conditions: MeCN, organic solvent or mixture, thermodynamic from solid, Solubility MeCN (M), in MeCN
Please respond with reported solubility for every item in the list.
Answer in M, number only, no unit symbol.

Query: I have this molecule here, C[n+]1ccc(-c2nc3ccccc3s2)cc1 , and I need its recorded solubility.
Result: 1

Query: Field request: solubility | item: C[N+](C)(C)CCC[n+]1ccc(-c2nc3ccccc3s2)cc1
Result: 0.89

====

Assay: Solubility test (UV-vis calibration curves, maximum solubility)
Conditions: 0.5 M TBAPF6 in MeCN, organic solvent or mixture, thermodynamic from solid, maximum solubility in electrolyte solution, 0.5 M TBAPF6/MeCN
Attribute measured: solubility (mM)
Field: numeric (mM). Do not append units.

Query: Any idea what solubility was measured for C[N+](C)(C)CCC[n+]1ccc(-c2nc3ccccc3s2)cc1 [TMAP-BTP^2+·2PF6^−] ?
Result: 26
